# experimental target: HLA-A*31:01
# assay summary: IEDB peptide-MHC binding, purified MHC/competitive/fluorescence; filed as Kd, often an IC50 or EC50 that approximates it; bounds were set here for any values at or beyond the usual limits of such assays
# study conditions: source organism: Mycobacterium tuberculosis variant bovis BCG str. Pasteur 1173P2
parameter: Kd (nM)
Supply the numeric figure in nM, leaving out any unit text.

Ask: Entry under review: `RLNFFTPTK` . Reported Kd?
Result: 2.3

---

# experimental target: HLA-A*23:01
# assay summary: IEDB peptide-MHC binding, purified MHC/competitive/radioactivity; filed as Kd, often an IC50 or EC50 that approximates it; bounds were set here for any values at or beyond the usual limits of such assays
# study conditions: source organism: Mammarenavirus whitewaterense
parameter: Kd (µM)
Write the answer as a number in µM, unit excluded.

Ask: Which Kd is reported for this sequence? `IYQPESQKF`
Result: 0.0534

---

# experimental target: HLA-A*26:01
# assay summary: IEDB peptide-MHC binding, purified MHC/direct/fluorescence; filed as Kd, often an IC50 or EC50 that approximates it; bounds were set here for any values at or beyond the usual limits of such assays
# study conditions: source organism: Vibrio cholerae
parameter: Kd

monomer_sequence=IPISGRITA parameter=Kd assay_value="≥ 20 µM"

Now consider the entry below.
Ask: Look at this sequence and give its reported Kd. `KEDPGDHIF`
Result: ≥ 20 µM

---

# experimental target: HLA-B*18:01
# assay summary: IEDB peptide-MHC binding, purified MHC/competitive/fluorescence; filed as Kd, often an IC50 or EC50 that approximates it; bounds were set here for any values at or beyond the usual limits of such assays
# study conditions: source organism: Helicobacter pylori 26695
pKd: −log10 of the molar value.
parameter: pKd

Ask: Form field: reported pKd of `GIVCYNEEV`
Result: ≤ 4.70

---

# experimental target: HLA-B*40:01
# assay summary: IEDB peptide-MHC binding, purified MHC/direct/fluorescence; filed as Kd, often an IC50 or EC50 that approximates it; bounds were set here for any values at or beyond the usual limits of such assays
# study conditions: source organism: Mycobacterium tuberculosis C
pKd: −log10 of the molar value.
parameter: pKd

Ask: I would be grateful if you could share the reported pKd for `TPKIRFWHV` .
Result: ≤ 4.70

---

# experimental target: HLA-A*01:01
# assay summary: IEDB peptide-MHC binding, purified MHC/competitive/radioactivity; bounds were set here for any values at or beyond the usual limits of such assays
# study conditions: source organism: Human papillomavirus 16
parameter: pIC50
The value called pIC50 is obtained by taking minus log10 of the concentration in mol/L.

Ask: Param item = `QVDYYGLYY` ; retrieve measured pIC50.
Result: 7.74

---

# experimental target: HLA-A*02:17
# assay summary: IEDB peptide-MHC binding, purified MHC/competitive/radioactivity; filed as Kd, often an IC50 or EC50 that approximates it; bounds were set here for any values at or beyond the usual limits of such assays
# study conditions: source organism: Dengue virus 3 Martinique/1243/1999
parameter: Kd (nM)
Record the value in nM, omitting the unit from your answer.

Ask: // query Kd value for entry `YQLWTALISL`
Result: 104

---

# experimental target: HLA-B*35:01
# assay summary: IEDB peptide-MHC binding, purified MHC/competitive/radioactivity; filed as Kd, often an IC50 or EC50 that approximates it; bounds were set here for any values at or beyond the usual limits of such assays
# study conditions: source organism: Mammarenavirus brazilense
parameter: Kd (nM)
The response must be a number in nM with no trailing unit.

Ask: Look at this sequence and give its reported Kd. `APFMSDLQF`
Result: 7.55
